Attribution: patent US20150065347A1

Test: Water solubility of the co-crystals (slurry equilibration, HPLC)
Type: physicochemical
Conditions: water suspension (slurry), thermodynamic from solid; water suspensions slurried for 24 hours, filtered, liquid phase by HPLC, room temperature
parameter: solubility at 24 h (µg/mL)

> print(dat)
      smiles.representation      u  data.value
1  COc1c(Cl)ccc(Cl)c1C(=O)O  µg/mL        6550
